Tested on: Erythrocyte
Test summary: Anticomplement activity in New Zealand White rabbit erythrocytes assessed as concentration required for 50% hemolytic inhibition by alternative pathway preincubated for 10 mins with normal human serum followed by erythrocyte addition measured after 30 mins by spectrophotometer
Format: functional, Oryctolagus cuniculus
Assay metric: Activity (mg/mL)

structure_string=COC(=O)[C@]12CCC(C)(C)C[C@H]1C1=CC[C@@H]3[C@@]4(C)CC[C@H](O)C(C)(C)[C@@H]4CC[C@@]3(C)[C@]1(COC(=O)/C=C/c1ccc(O)cc1)CC2 unit_text=mg/mL obs_value=0.444
structure_string=CC1(C)CC[C@]2(C(=O)O)CC[C@]3(COC(=O)/C=C/c4ccc(O)cc4)C(=CC[C@@H]4[C@@]5(C)CC[C@H](OC(=O)/C=C/c6ccc(O)cc6)C(C)(C)[C@@H]5CC[C@]43C)[C@@H]2C1 unit_text=mg/mL obs_value=0.159
structure_string=C=C1CC[C@@]23CC[C@]4(C)[C@@](OC2=O)([C@@H]3[C@H]1C)[C@H]1O[C@H]1[C@@H]1[C@@]2(C)C=C(O)C(=O)C(C)=C2[C@H](O)C[C@]14C unit_text=mg/mL obs_value=0.656
structure_string=C[C@H]1[C@H](C)CC[C@@]23CC[C@]4(C)[C@@](OC2=O)([C@H]13)[C@H]1O[C@H]1[C@@H]1[C@@]2(C)CC(=O)[C@H](O)[C@@H](C)[C@@H]2[C@H](O)C[C@]14C unit_text=mg/mL obs_value=0.734
structure_string=C[C@H]1CC[C@]2(C(=O)O)CC[C@]3(C)C(=CC[C@@H]4[C@@]5(C)CC[C@H](O)C(C)(C)[C@@H]5CC[C@]43C)[C@@H]2[C@]1(C)O unit_text=mg/mL obs_value=0.579
structure_string=C=C1[C@@H](O)[C@H](O)C[C@]2(C)[C@H]3CC=C4[C@@H]5CC(C)(C)CC[C@]5(C(=O)O)CC[C@@]4(C)[C@]3(C)CC[C@@H]12 unit_text=mg/mL obs_value=0.308
structure_string=C=C1[C@@H](O)[C@H](O)C[C@]2(C)[C@H]3[C@@H]4O[C@@H]4[C@]45OC(=O)[C@@]6(CC[C@@H](C)[C@H](C)[C@H]64)CC[C@@]5(C)[C@]3(C)CC[C@@H]12 unit_text=mg/mL obs_value=0.794
structure_string=C=C1[C@@H](O)[C@H](O)C[C@]2(C)[C@H]3[C@@H]4O[C@@H]4[C@]45OC(=O)[C@@]6(CCC(C)(C)C[C@H]64)CC[C@@]5(C)[C@]3(C)CC[C@@H]12 unit_text=mg/mL obs_value=0.781
structure_string=COC(=O)[C@]12CCC(C)(C)C[C@H]1C1=CC[C@@H]3[C@@]4(C)CC[C@H](O)C(C)(C)[C@@H]4CC[C@@]3(C)[C@]1(COC(=O)/C=C/c1ccc(O)c(O)c1)CC2 unit_text=mg/mL obs_value=0.089
structure_string=C[C@H]1[C@H](C)CC[C@]2(C(=O)O)CC[C@]3(C)C(=CC[C@@H]4[C@@]5(C)CC[C@H](O)C(C)(C)[C@@H]5CC[C@]43C)[C@H]12 unit_text=mg/mL obs_value=0.493
